Tested on: Escherichia coli
procedure_summary: minimum inhibitory concentration (MIC)
measurement_conditions: isolate (source animal id): 143
measure: minimum inhibitory concentration

Some compounds with known minimum inhibitory concentration results, for comparison:
INSERT INTO results (structure_smiles, value_reported) VALUES
  ('CCCN1C[C@H](C)[C@@H](O)[C@](C)(O)[C@@H](CC)OC(=O)[C@H](C)[C@@H](O[C@H]2C[C@@](C)(OC)[C@@H](O)[C@H](C)O2)[C@H](C)[C@@H](O[C@@H]2O[C@H](C)C[C@H](N(C)C)[C@H]2O)[C@](C)(O)C[C@H]1C', '> 8 µg/mL'),
  ('CN[C@@H]1[C@H](O)[C@H](NC)[C@H]2O[C@@]3(O)C(=O)C[C@@H](C)O[C@H]3O[C@@H]2[C@H]1O', '> 64 µg/mL');

Q: Name the recorded minimum inhibitory concentration for NC[C@@H]1O[C@H](O[C@H]2[C@@H](O)[C@H](O[C@@H]3[C@@H](O)[C@H](N)C[C@H](N)[C@H]3O[C@H]3O[C@H](CN)[C@@H](O)[C@H](O)[C@H]3N)O[C@@H]2CO)[C@H](N)[C@@H](O)[C@@H]1O .
Ans: > 32 µg/mL
